Experiment: NCI Yeast Anticancer Drug Screen. Data for the mec2-1 strain (AID 157)
Conditions: S. cerevisiae mec2-1 strain, at 50.0 µM, hits give high values
Compounds without any hit were thinned out: in the full panel of roughly 79,000, 15% have a hit.
Reported Property: growth inhibition (%)
Provide only the numeric value, understood in %.

Study these solved cases before continuing.
CCCCN(CCCC)CCC(=O)c1ccc2c(ccc3ccccc32)c1 | 95.5
CCOC(=O)Cc1[nH]c(C(=O)c2ccccc2)cc1C(=O)c1ccccc1 | -9.35
Clc1ccc(-c2nnc(-c3ccccn3)o2)c(Cl)c1 | 28.1
CC1CC(N)=NC1C(=O)NCCC#N (stereo not drawn) | 3.25
Oc1ccc(N=Nc2ccc(Cl)cc2)cc1O | 98.3

Please fill in: growth inhibition reported for O=C(O)CCC(=O)NNc1ccccc1 = 85.9

The recorded growth inhibition for OCC(O)C(O)C(O)/C=N\Nc1ccccc1 (stereo not drawn) is 44.4

So for NCC1CCNCC1 , the logged growth inhibition turned out to be -9.25

Query Cc1ccc(S(=O)(=O)OC2C(C)OCOC(C)C2OS(=O)(=O)c2ccc(C)cc2)cc1 (stereo not drawn) yields growth inhibition of 11.9
